The reported measurements were obtained from paper PMC10060354.

I'd be grateful if you could share measured solubility for these entries.
Experiment: Semi-thermodynamic solubility
Assay type: physicochemical
Details: PBS, aqueous buffer, thermodynamic from solid, Room Temp; Overnight; LC-MSMS; read-out: Solubility Replicate 1

Sure, the documented solubility for O=[N+]([O-])c1c(Cl)cc(O)c2c1C1C=CCC1C(c1ccc(Cl)cc1Cl)N2 (stereo not drawn) is > 100 µM

Sure, the documented solubility for `CC(C)C[C@@H](CO)NCc1cc(O)c2cc(F)ccc2n1` is > 100 µM

Sure, the documented solubility for O=C(O)c1c(Cl)cc(O)c2c1C1C=CCC1C(c1ccc(Cl)cc1)N2 (stereo not drawn) is > 100 µM

----------
Assay: CaCo-2 permeability (bi-directional)
Settings: human, Caco-2, pH 7.4, Papp B2A Replicate 2, HBSS/HBSS; pH 7.4/7.4
Method: Caco-2 cells obtained from the ATCC were used between passage numbers 40—60. Cells were seeded onto Millipore Multiscreen Transwell plates at 1 × 10^5 cells/cm^2. The cells were cultured in DMEM and media was changed every two or three days. […] Compound permeability was assessed in duplicate. […] Test and control compounds were quantified by LC–MS/MS cassette analysis using a 7-point calibration with appropriate dilution of the samples. […] Efflux ratio (ER) was calculated from mean A-B and B-A data. […]
Decision: Papp B→A at 120 min, 10 μM compared against 10 ×10⁻⁶ cm/s; not below it gives 1, below it gives -1.

In plain terms: is recorded Papp B→A at 120 min, 10 μM at least 10 ×10⁻⁶ cm/s for `Cc1[nH]nc(-c2ccc(O)c(C)c2O)c1-c1nc2ccccc2s1` ?
1

In plain terms: is recorded Papp B→A at 120 min, 10 μM at least 10 ×10⁻⁶ cm/s for `CC(C)C[C@@H](CO)NCc1cc(O)c2cc(F)ccc2n1` ?
1

In plain terms: is recorded Papp B→A at 120 min, 10 μM at least 10 ×10⁻⁶ cm/s for Oc1cc(Cl)cc2c1NC(c1ccc(Cl)cc1)C1CC=CC21 (stereo not drawn) ?
-1

In plain terms: is recorded Papp B→A at 120 min, 10 μM at least 10 ×10⁻⁶ cm/s for N#Cc1c(Cl)cc(O)c2c1C1C=CCC1C(c1ccc(Cl)cc1)N2 (stereo not drawn) ?
-1

In plain terms: is recorded Papp B→A at 120 min, 10 μM at least 10 ×10⁻⁶ cm/s for `CC1(C)Cc2cccc(OCC(=O)Nc3nc4ccccc4s3)c2O1` ?
-1

In plain terms: is recorded Papp B→A at 120 min, 10 μM at least 10 ×10⁻⁶ cm/s for O=[N+]([O-])c1c(Cl)cc(O)c2c1C1C=CCC1C(c1ccc(Cl)cc1)N2 (stereo not drawn) ?
1

----------
Assay: Semi-thermodynamic solubility
Type: physicochemical
Details: aqueous buffer, thermodynamic from solid; PBS; overnight; summary sheet
observable: solubility thermodynamic

Sure, the documented solubility thermodynamic for COc1ncc(C(C)NC2CC(C)(C)NC(C)(C)C2)cc1Cl (stereo not drawn) is > 100 µM

Sure, the documented solubility thermodynamic for `Cc1[nH]nc(-c2ccc(O)c(C)c2O)c1-c1nc2ccccc2s1` is > 100 µM

Sure, the documented solubility thermodynamic for O=[N+]([O-])c1c(Cl)cc(O)c2c1C1C=CCC1C(c1ccc(Cl)cc1Cl)N2 (stereo not drawn) is > 100 µM

Sure, the documented solubility thermodynamic for `CC(C)C[C@@H](CO)NCc1cc(O)c2cc(F)ccc2n1` is > 100 µM

Sure, the documented solubility thermodynamic for O=C(O)c1c(Cl)cc(O)c2c1C1C=CCC1C(c1ccc(Cl)cc1)N2 (stereo not drawn) is > 100 µM

Sure, the documented solubility thermodynamic for Oc1cc(Cl)cc2c1NC(c1ccc(Cl)cc1)C1CC=CC21 (stereo not drawn) is < 1 µM
